Values were extracted from patent US9040518B2.

Biological target: ileal bile acid cotransporter (iBAT) (Homo sapiens (Human))
Assay: Human iBAT inhibition: [3H]-taurocholate uptake into HEK293 cells expressing human iBAT
Details: HEK293 cells transduced with human iBAT Bacmam virus, 90 minutes at ambient temperature, mean of at least 2 datapoints
pIC50: −log10 of the molar value. Structures can show the parent of a compound that is named as a salt.
Record class 1 whenever pIC50 is at 7 or higher; record class 0 when lower.

>>> df
                                   compound  class_assignment
0  CCCC[C@]1(CC)CS(=O)(=O)c2cc(CCC(=O)NS(C)(=O)=O)c(OC)cc2[C@@H](c2ccccc2)N1           class 1
1  CCCC[C@]1(CC)CS(=O)(=O)c2cc(CNC(=O)CP(=O)(O)O)c(OC)cc2[C@@H](c2ccccc2)N1 [Example 38, trifluoroacetate salt]           class 0
2  CCCC[C@]1(CC)CS(=O)(=O)c2cc(CN[C@@H](CC(=O)O)C(=O)O)c(OC)cc2[C@@H](c2ccccc2)N1 [Example 27, trifluoroacetate salt]           class 1
3  CCCC[C@]1(CC)CS(=O)(=O)c2cc(CN[C@H](CC(=O)O)C(=O)O)c(OC)cc2[C@@H](c2ccccc2)N1 [Example 28, trifluoroacetate salt]           class 1
4  CCCC[C@]1(CC)CS(=O)(=O)c2cc(CNC(CC(=O)O)CC(=O)O)c(OC)cc2[C@H](c2ccccc2)N1           class 0
5  CCCC[C@]1(CC)CS(=O)(=O)c2cc(CNC(C)(C)C(=O)O)c(OC)cc2[C@@H](c2ccccc2)N1 [Example 32, trifluoroacetate salt]           class 0
6  CCCC[C@]1(CC)CS(=O)(=O)c2cc(CNC(=O)CNC(CC(=O)O)CC(=O)O)c(OC)cc2[C@@H](c2ccccc2)N1 [Example 41, trifluoroacetate salt]           class 0
7  CCCC[C@]1(CC)CS(=O)(=O)c2cc(CCC(=O)NCC(=O)O)c(OC)cc2[C@@H](c2ccccc2)N1           class 0
8  CCCC[C@]1(CC)CS(=O)(=O)c2cc(CCC(=O)NC(CC(=O)O)CC(=O)O)c(OC)cc2[C@@H](c2ccccc2)N1 [Example 17, trifluoroacetate salt]           class 0
9  CCCC[C@]1(CC)CS(=O)(=O)c2cc(CNCP(=O)(O)O)c(OC)cc2[C@@H](c2ccccc2)N1 [Example 62, trifluoroacetate salt]           class 0

###

Listing of entries alongside the reported IC50.
Target: UniProt:Q12908
Assay: Human iBAT inhibition: [3H]-taurocholate uptake into HEK293 cells expressing human iBAT
Details: HEK293 cells transduced with human iBAT Bacmam virus, 90 minutes at ambient temperature, mean of at least 2 datapoints
Counter-ions that a name gives are not always drawn.
MEASUREMENT NAME: IC50 (nM)

In [3]: df
Out[3]:
                                   molecule  result_modifier  test_value
0  CCCC[C@]1(CC)CS(=O)(=O)c2cc(CNC(CC(=O)O)CC(=O)O)c(OC)cc2[C@@H](c2ccccc2)N1O [Example 50, trifluoroacetate salt]                =          51
1  CCCC[C@]1(CC)CS(=O)(=O)c2cc(CN[C@@H](CO)C(=O)O)c(OC)cc2[C@@H](c2ccccc2)N1 [Example 52, bis-ammonium salt]                =          59
2  CCCC[C@]1(CC)CS(=O)(=O)c2cc(C(CC(=O)O)CC(=O)O)c(OC)cc2[C@@H](c2ccccc2)N1                >        3000
3  CCCC[C@]1(CC)CS(=O)(=O)c2cc(CCC(=O)NCCS(=O)(=O)O)c(OC)cc2[C@@H](c2ccccc2)N1                =         504

###

Target: ileal bile acid cotransporter (iBAT) (Homo sapiens (Human), UniProt Q12908)
Sequence (Q12908 whole entry): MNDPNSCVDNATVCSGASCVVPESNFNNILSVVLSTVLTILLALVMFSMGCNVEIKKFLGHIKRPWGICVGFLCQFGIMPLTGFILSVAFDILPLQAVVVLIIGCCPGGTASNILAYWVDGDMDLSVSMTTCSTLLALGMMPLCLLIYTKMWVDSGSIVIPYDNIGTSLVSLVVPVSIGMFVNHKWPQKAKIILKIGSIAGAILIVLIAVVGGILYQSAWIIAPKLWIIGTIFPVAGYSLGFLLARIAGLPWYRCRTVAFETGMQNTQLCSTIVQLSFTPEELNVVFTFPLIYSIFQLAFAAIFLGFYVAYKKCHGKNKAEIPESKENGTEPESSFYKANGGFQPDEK
Experiment: Human iBAT inhibition: [3H]-taurocholate uptake into HEK293 cells expressing human iBAT
Assay type: cell-based
Conditions: HEK293 cells transduced with human iBAT Bacmam virus, 90 minutes at ambient temperature, mean of at least 2 datapoints
Where a name gives a salt, the structure may show the parent alone.
Listing of entries alongside the reported IC50.
MEASUREMENT NAME: IC50

>>> print(df.to_string())
                                    compound                           measured_target  test_value
 0  CCCC[C@]1(CC)CS(=O)(=O)c2cc(CCCNCCS(=O)(=O)O)c(OC)cc2[C@@H](c2ccccc2)N1  ileal bile acid cotransporter (iBAT) (Homo sapiens (Human), UniProt Q12908)     2440 nM
 1  CCCC[C@]1(CC)CS(=O)(=O)c2cc(CNC(CC(=O)O)CC(=O)O)c(N(C)C)cc2[C@@H](c2ccccc2)N1 [Example 69, bis-ammonium salt]  ileal bile acid cotransporter (iBAT) (Homo sapiens (Human), UniProt Q12908)       19 nM
 2  CCCC[C@]1(CC)CS(=O)(=O)c2cc(CCC(=O)O)c(OC)cc2[C@@H](c2ccccc2)N1  ileal bile acid cotransporter (iBAT) (Homo sapiens (Human), UniProt Q12908)       17 nM
 3  CCCC[C@]1(CC)CS(=O)(=O)c2cc(CNC(=O)CNCCP(=O)(O)O)c(OC)cc2[C@@H](c2ccccc2)N1 [Example 40, trifluoroacetate salt]  ileal bile acid cotransporter (iBAT) (Homo sapiens (Human), UniProt Q12908)     4670 nM
 4  CCCCC1(CCCC)CS(=O)(=O)c2cc(CNCC(=O)O)c(OC)cc2C(c2ccccc2)N1 (stereo not shown) [Example 66, trifluoroacetate salt]  ileal bile acid cotransporter (iBAT) (Homo sapiens (Human), UniProt Q12908)       21 nM
 5  CCCC[C@]1(CC)CS(=O)(=O)c2cc(/C=C/C(=O)O)c(OC)cc2[C@@H](c2ccccc2)N1 [Example 9, ammonium salt]  ileal bile acid cotransporter (iBAT) (Homo sapiens (Human), UniProt Q12908)        3 nM
 6  CCCC[C@]1(CC)CS(=O)(=O)c2cc(CCC(=O)N(CC(=O)O)CC(=O)O)c(OC)cc2[C@@H](c2ccccc2)N1  ileal bile acid cotransporter (iBAT) (Homo sapiens (Human), UniProt Q12908)      728 nM
 7  CCCC[C@]1(CC)CS(=O)(=O)c2cc(CN(CC(=O)O)CC(=O)O)c(OC)cc2[C@@H](c2ccccc2)N1 [Example 7, hydrochloride salt]  ileal bile acid cotransporter (iBAT) (Homo sapiens (Human), UniProt Q12908)      145 nM
 8  CCCC[C@]1(CC)CS(=O)(=O)c2cc(CN[C@@H](CCCCN)C(=O)O)c(OC)cc2[C@@H](c2ccccc2)N1 [Example 58, ammonium salt]  ileal bile acid cotransporter (iBAT) (Homo sapiens (Human), UniProt Q12908)     1460 nM
 9  CCCC[C@]1(CC)CS(=O)(=O)c2cc(CN(O)CC(=O)O)c(OC)cc2[C@@H](c2ccccc2)N1  ileal bile acid cotransporter (iBAT) (Homo sapiens (Human), UniProt Q12908)       17 nM
10  CCCC[C@]1(CC)CS(=O)(=O)c2cc(CCC(=O)NCS(=O)(=O)O)c(OC)cc2[C@@H](c2ccccc2)N1  ileal bile acid cotransporter (iBAT) (Homo sapiens (Human), UniProt Q12908)      167 nM
11  CCCC[C@]1(CC)CS(=O)(=O)c2cc(C(N)=O)c(OC)cc2[C@@H](c2ccccc2)N1  ileal bile acid cotransporter (iBAT) (Homo sapiens (Human), UniProt Q12908)       73 nM
12  CCCC[C@]1(CC)CS(=O)(=O)c2cc(CN[C@@H](CCCCN(C)C)C(=O)O)c(OC)cc2[C@@H](c2ccccc2)N1 [Example 59, ammonium salt]  ileal bile acid cotransporter (iBAT) (Homo sapiens (Human), UniProt Q12908)     3330 nM

###

This section presents compounds with their documented IC50 values.
Molecular target: UniProt Q12908
Experiment: Human iBAT inhibition: [3H]-taurocholate uptake into HEK293 cells expressing human iBAT
Details: HEK293 cells transduced with human iBAT Bacmam virus, 90 minutes at ambient temperature, mean of at least 2 datapoints
Structures can show the parent of a compound that is named as a salt.
MEASUREMENT NAME: IC50 (nM)

In [3]: df
Out[3]:
                                   compound  measurement_name  test_value
0  CCCC[C@]1(CC)CS(=O)(=O)c2cc(CNCC(=O)O)c(N(C)C)cc2[C@@H](c2ccccc2)N1 [Example 68, trifluoroacetate salt]              IC50           1
1  CCCC[C@]1(CC)CS(=O)(=O)c2cc(C(=O)NCC(C)(C)C(=O)O)c(OC)cc2[C@@H](c2ccccc2)N1              IC50          32
2  CCCC[C@]1(CC)CS(=O)(=O)c2cc(CN3CCCC3=O)c(OC)cc2[C@@H](c2ccccc2)N1 [Example 31, trifluoroacetate salt]              IC50         407
3  CCCC[C@]1(CC)CS(=O)(=O)c2cc(CCC(=O)NC(C)(C)C(=O)O)c(OC)cc2[C@@H](c2ccccc2)N1              IC50         731
4  CCCC[C@]1(CC)CS(=O)(=O)c2cc(CN(CP(=O)(O)O)CP(=O)(O)OCC)c(OC)cc2[C@@H](c2ccccc2)N1 [Example 61, triammonium salt]              IC50        3360
5  CCCC[C@]1(CC)CS(=O)(=O)c2cc(C(=O)NCCS(=O)(=O)O)c(OC)cc2[C@@H](c2ccccc2)N1 [Example 3, trifluoroacetate]              IC50           2
